Data credit: patent US9932349B2

Biological target: κ opioid receptor (Cavia porcellus, UniProt P41144)
Construct: determined in guinea pig brain cells; from tissue; host or cells: guinea pig brain
Sequence (P41144 whole entry): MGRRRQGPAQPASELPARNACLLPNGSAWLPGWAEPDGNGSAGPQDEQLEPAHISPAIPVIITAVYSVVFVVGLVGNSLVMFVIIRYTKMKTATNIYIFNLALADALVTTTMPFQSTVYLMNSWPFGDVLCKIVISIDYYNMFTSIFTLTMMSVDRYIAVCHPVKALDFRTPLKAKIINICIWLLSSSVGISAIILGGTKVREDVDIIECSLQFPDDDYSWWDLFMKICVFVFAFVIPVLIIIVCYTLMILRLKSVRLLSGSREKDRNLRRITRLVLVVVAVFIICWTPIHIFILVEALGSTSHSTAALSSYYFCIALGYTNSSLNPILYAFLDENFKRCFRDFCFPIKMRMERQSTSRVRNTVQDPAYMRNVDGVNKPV
Experiment: biochemical
Type: binding, guinea pig
Conditions: read-out: [3H] U69,593 (κ)
What pKi was measured for each of the following?
Answers are plain numbers, as −log10 of the molar value.

For orientation, consider the following solved cases.
>>> print(df.to_string())
                                   molecule  recorded_result
0  CCC12CCN(CC3CC3)C(C(=O)c3ccc(NC=O)cc31)C2C (stereo not shown)             8.92
1  NC(=O)c1ccc2c3c1OC1C(=O)CCC4(O)C(C2)N(CC2CC2)CCC314 (stereo not shown)             7.66
2  CCOC(=O)c1ccc2c3c1OC1C(=O)CCC4(O)C(C2)N(CC2CC2)CCC314 (stereo not shown)             7.80

Consider the molecule CCC12CCN(CC3CC3)C(C(=O)c3ccc(C(N)=O)cc31)C2C (stereo not shown) and give its measured pKi. 9.15

----------
Biological target: δ opioid receptor (Cavia porcellus, UniProt A0A286XTF2)
Construct: determined in guinea pig brain cells; from tissue; host or cells: guinea pig brain
Sequence (A0A286XTF2 1-366): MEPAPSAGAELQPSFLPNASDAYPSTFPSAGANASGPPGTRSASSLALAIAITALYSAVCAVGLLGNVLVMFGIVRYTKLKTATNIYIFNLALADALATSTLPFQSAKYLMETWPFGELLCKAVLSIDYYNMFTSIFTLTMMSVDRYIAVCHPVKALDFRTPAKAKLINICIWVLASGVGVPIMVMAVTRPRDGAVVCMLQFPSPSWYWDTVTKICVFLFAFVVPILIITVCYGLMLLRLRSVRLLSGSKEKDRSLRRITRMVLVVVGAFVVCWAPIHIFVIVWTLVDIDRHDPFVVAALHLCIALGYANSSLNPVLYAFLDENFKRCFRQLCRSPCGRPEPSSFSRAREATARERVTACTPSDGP
Assay: biochemical
Assay type: binding, guinea pig
Conditions: Ki [3H] Naltrindole (δ)
In plain terms, low Ki, meaning strictly below 300 nM, gives rule met, and everything else gives rule not met.

Worked examples follow.
                                   compound  assigned_category
0  C[C@H]1C2Cc3ccc(C(N)=S)cc3[C@@]1(C)CCN2CC1CC1 (racemic)           rule met
1  CC1[C@@H]2Cc3ccc(C(=N)NO)cc3[C@@]1(C)CCN2CC1CC1 (mixture of isomers)           rule met
2  C[C@H]1[C@H]2Cc3ccc(NS(C)(=O)=O)cc3[C@]1(C)CCN2CC1CC1 (racemic)       rule not met
3  C[C@H]1C2Cc3ccc(CO)cc3[C@@]1(C)CCN2CC1CC1 (racemic)           rule met
4  CC1C2Cc3ccc(C(N)=O)cc3C1(C)CCN2CC1CC1 (single isomer, unassigned) [Example 4a]           rule met

Please state whether Ki is below 300 nM for CC1C2Cc3ccc(NC=O)cc3C1(C)CCN2CC1CC1 (single isomer, unassigned) [Example 19a] rule met

Please state whether Ki is below 300 nM for CC1C2Cc3ccc(C(N)=O)cc3C1(C)CCN2CC1CC1 (single isomer, unassigned) [Example 4b] rule not met

Please state whether Ki is below 300 nM for CC1C2Cc3ccc(C(=O)NCCN(C)C)cc3C1(C)CCN2CC1CC1 (stereo not shown) rule not met

Please state whether Ki is below 300 nM for CC1C2Cc3ccc(CN)cc3C1(C)CCN2CC1CC1 (mixture of isomers) rule not met

----------
Molecular target: μ opioid receptor (Cavia porcellus)
Sequence (A0ACM8Q262 1-400): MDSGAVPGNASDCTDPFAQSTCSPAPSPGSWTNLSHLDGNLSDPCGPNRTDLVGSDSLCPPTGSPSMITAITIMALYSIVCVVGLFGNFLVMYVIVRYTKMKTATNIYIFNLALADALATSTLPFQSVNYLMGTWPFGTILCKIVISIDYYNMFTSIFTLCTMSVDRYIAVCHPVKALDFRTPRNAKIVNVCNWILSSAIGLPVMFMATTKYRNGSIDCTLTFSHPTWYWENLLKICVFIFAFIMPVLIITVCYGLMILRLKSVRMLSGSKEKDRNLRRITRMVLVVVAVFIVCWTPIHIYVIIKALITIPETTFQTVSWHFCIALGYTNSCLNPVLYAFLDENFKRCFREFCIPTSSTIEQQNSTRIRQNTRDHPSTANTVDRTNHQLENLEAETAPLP
Format: binding, guinea pig
Conditions: read-out: [3H] DAMGO (μ)
Observed property: pKi
One number for each entry, as −log10 of the molar value.

                                   molecule  recorded_result
0  CCOC(=O)c1ccc2c3c1OC1C(=O)CCC4(O)C(C2)N(CC2CC2)CCC314 (centres unmarked) [Example 33]             7.62

Shifting focus to the molecule that follows.
Recorded pKi for NC(=O)c1ccc2c3c1OC1C(=O)CCC4(O)C(C2)N(CC2CC2)CCC314 (centres unmarked) [Example 32] with μ opioid receptor (Cavia porcellus), please? 8.72

----------
Target: human δ opioid receptor (Homo sapiens)
Construct: expressed in transfected cells; host or cells: Chinese hamster ovary (CHO) cells
Sequence (P41143 whole entry): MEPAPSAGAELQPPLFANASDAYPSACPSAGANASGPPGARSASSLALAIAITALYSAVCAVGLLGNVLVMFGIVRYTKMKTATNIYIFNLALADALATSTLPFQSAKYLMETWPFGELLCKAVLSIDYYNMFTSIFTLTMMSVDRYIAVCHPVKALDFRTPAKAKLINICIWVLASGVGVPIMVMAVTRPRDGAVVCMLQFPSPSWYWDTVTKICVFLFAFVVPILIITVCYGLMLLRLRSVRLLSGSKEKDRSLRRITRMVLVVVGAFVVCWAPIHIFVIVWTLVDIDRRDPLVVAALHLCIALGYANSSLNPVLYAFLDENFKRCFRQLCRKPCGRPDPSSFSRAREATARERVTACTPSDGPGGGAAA
Assay: binding to cloned human receptor in CHO cell membranes, [3H]Naltrindole
pKi: −log10 of the molar value.
Label Met when pKi >= 7; otherwise Not met.

>>> print(df.to_string())
                                   compound  assigned_category
0  Oc1ccc2c(c1)C13CCCCC1(O)C(C2)N(CC1CCC1)CC3 (centres unmarked) [butorphanol, Butorphanol, reference compound]                Met

Would you kindly look at the next entry?
Does pKi meet or surpass 7 for CC1C2Cc3ccc(CC#N)cc3C1(C)CCN2CC1CC1 (centres unmarked) [Example 38] ? Not met

----------
Target: δ opioid receptor (Cavia porcellus, UniProt A0A286XTF2)
Construct: determined in guinea pig brain cells; from tissue; host or cells: guinea pig brain
Test: biochemical
Assay type: binding, guinea pig
Conditions: Ki [3H] Naltrindole (δ)
Observed property: Ki

For orientation, consider the following solved cases.
>>> df
                                   compound                             tested_target  observed_property  recorded_result
0  C[C@H]1[C@H]2Cc3ccc(C(=O)NO)cc3[C@]1(C)CCN2CC1CC1 (racemic)  δ opioid receptor (Cavia porcellus, UniProt A0A286XTF2)                 Ki           210 nM
1  CC1C2Cc3ccc(C(=NO)c4ccccc4)cc3C1(C)CCN2CC1CC1 (stereo not shown)  δ opioid receptor (Cavia porcellus, UniProt A0A286XTF2)                 Ki           180 nM
2  COC(=O)c1ccc2c(c1)[C@@]1(C)CCN(CC3CC3)C(C2)[C@@H]1C (racemic)  δ opioid receptor (Cavia porcellus, UniProt A0A286XTF2)                 Ki            59 nM
3  CC1C2Cc3ccc(NC=O)cc3C1(C)CCN2CC1CC1 (single isomer, unassigned) [Example 19b]  δ opioid receptor (Cavia porcellus, UniProt A0A286XTF2)                 Ki       > 10000 nM
4  C[C@H]1[C@H]2Cc3ccc(C(=O)O)cc3[C@]1(C)CCN2CC1CC1 (racemic)  δ opioid receptor (Cavia porcellus, UniProt A0A286XTF2)                 Ki           320 nM

Here are 2 compounds. What values of Ki were reported for them?
1. COc1ccc(CNC(=O)c2ccc3c(c2)[C@]2(C)CCN(CC4CC4)[C@H](C3)[C@@H]2C)cc1 (racemic)
2. CC1C2Cc3ccc(C(=O)NCc4ccccc4)cc3C1(C)CCN2CC1CC1 (stereo not shown)

150 nM
140 nM

----------
What pKi was measured for each of the following?
Target: human δ opioid receptor (Homo sapiens)
Construct: expressed in transfected cells; host or cells: Chinese hamster ovary (CHO) cells
Test: binding to cloned human receptor in CHO cell membranes, [3H]Naltrindole
One number for each entry, as −log10 of the molar value.

Here are 3 molecules. What values of pKi were reported for them?
1. CC1C2Cc3ccc(C=NO)cc3C1(C)CCN2CC1CC1 (stereo not drawn) [Example 39]
2. N#Cc1ccc2c(c1O)[C@]13CCN(CC4CCC4)[C@H](C2)[C@]1(O)CCC(=O)C3 [Example 43]
3. CC1C2C(=O)c3ccc(O)cc3[C@@]1(C)CCN2CC1CC1 (mixture of isomers) [(±)-ketocyclazocine, Ketocyclazocine, reference compound]

[6.85, 7.09, 6.89]
